Molecular target: T1, orthogonal hCD122 receptor (hoRb), hCD122 with H133D and Y134F (human, UniProt P14784 27-550); further: reference of the scale not given here
T1 sequence: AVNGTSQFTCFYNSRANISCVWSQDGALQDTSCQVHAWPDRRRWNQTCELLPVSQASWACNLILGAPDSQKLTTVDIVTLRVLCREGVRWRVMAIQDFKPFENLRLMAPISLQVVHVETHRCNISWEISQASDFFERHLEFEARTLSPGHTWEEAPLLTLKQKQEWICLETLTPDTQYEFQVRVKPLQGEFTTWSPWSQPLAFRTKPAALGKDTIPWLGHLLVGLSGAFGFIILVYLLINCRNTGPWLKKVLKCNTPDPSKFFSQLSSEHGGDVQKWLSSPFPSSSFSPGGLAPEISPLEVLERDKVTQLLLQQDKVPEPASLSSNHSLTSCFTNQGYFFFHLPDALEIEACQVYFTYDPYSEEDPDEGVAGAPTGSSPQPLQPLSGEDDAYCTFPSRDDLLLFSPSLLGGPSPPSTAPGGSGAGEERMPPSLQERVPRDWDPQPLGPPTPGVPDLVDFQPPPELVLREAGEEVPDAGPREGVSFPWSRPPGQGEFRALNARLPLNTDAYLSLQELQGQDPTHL
Experiment: cell-based or functional assay
Recorded Relative Proliferation Fold Change 3F8 1:2, one value per entry.
Your answer should be a number followed by the unit of measure.

[
  {
    "binder": "Q126T, SQVLKA (ligand) APTSSSTKKTQLQLSQLLVLLKAILNGINNYKNPKLTRMLTFKFYMPKKATELKHLQCLEEELKPLEEVLNLAQSKNFHLRPRDLISNINVIVLELKGSETTFMCEYADETATIVEFLNRWITFCTSIISTLT",
    "observed measurement": "0.28 fold"
  },
  {
    "binder": "SQVLNA (ligand) APTSSSTKKTQLQLSQLLVLLNAILNGINNYKNPKLTRMLTFKFYMPKKATELKHLQCLEEELKPLEEVLNLAQSKNFHLRPRDLISNINVIVLELKGSETTFMCEYADETATIVEFLNRWITFCQSIISTLT",
    "observed measurement": "80.2 fold"
  },
  {
    "binder": "R38W, SQVLKA (ligand) APTSSSTKKTQLQLSQLLVLLKAILNGINNYKNPKLTWMLTFKFYMPKKATELKHLQCLEEELKPLEEVLNLAQSKNFHLRPRDLISNINVIVLELKGSETTFMCEYADETATIVEFLNRWITFCQSIISTLT",
    "observed measurement": "94.4 fold"
  }
]

Let us examine a further case.
Short answer for T51I, SQVLKA (ligand) APTSSSTKKTQLQLSQLLVLLKAILNGINNYKNPKLTRMLTFKFYMPKKAIELKHLQCLEEELKPLEEVLNLAQSKNFHLRPRDLISNINVIVLELKGSETTFMCEYADETATIVEFLNRWITFCQSIISTLT : Relative Proliferation Fold Change 3F8 1:2 was 111 fold
